Where do these numbers come from? They come from patent US20150368338A1.

Biological target: T1, IFN-αF (human, UniProt P01568 24-189)
T1 construct: also called IFN-α21; alpha F
T1 chain: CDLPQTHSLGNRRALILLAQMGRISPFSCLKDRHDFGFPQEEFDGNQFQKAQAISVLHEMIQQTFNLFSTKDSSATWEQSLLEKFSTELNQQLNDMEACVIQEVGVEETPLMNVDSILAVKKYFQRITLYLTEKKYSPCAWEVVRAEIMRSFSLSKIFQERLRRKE
Assay: ProteOn, one antigen concentration
Flag rule - Kd less than 0.1 nM flags 1; the remaining entries get -1.

Below, 4 binders whose answers are already recorded.
IFWM3345 (antibody, V domains shown, VH IFWH624, VL IFWL1000; converted mAb; also called IFWB3080) VH: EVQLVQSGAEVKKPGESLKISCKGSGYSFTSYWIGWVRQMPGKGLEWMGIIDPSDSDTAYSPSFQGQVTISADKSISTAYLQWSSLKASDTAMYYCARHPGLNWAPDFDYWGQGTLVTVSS VL: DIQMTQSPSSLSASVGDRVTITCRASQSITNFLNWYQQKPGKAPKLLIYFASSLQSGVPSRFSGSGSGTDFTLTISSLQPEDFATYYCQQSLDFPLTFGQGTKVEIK	-1
IFWM3317 (antibody, V domains shown, VH IFWH591, VL IFWL1026; converted mAb; also called IFWB3052) VH: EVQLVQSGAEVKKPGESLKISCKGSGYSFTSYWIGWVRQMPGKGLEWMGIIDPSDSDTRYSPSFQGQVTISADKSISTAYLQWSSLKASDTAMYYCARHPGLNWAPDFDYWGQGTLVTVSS VL: DIQMTQSPSSLSASVGDRVTITCRASQSISKFLNWYQQKPGKAPKLLIYFASSLQSGVPSRFSGSGSGTDFTLTISSLQPEDFATYYCQQSYDFPITFGQGTKVEIK	-1
IFWM3347 (antibody, V domains shown, VH IFWH624, VL IFWL1004; converted mAb; also called IFWB3082) VH: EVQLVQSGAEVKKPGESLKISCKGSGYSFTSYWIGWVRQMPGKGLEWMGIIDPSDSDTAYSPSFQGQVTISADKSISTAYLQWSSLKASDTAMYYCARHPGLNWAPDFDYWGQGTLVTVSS VL: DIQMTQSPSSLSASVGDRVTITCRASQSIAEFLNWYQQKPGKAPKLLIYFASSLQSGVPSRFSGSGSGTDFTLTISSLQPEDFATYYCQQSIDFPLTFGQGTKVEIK	-1
IFWM3364 (antibody, V domains shown, VH IFWH624, VL IFWL1060; converted mAb; also called IFWB3099) VH: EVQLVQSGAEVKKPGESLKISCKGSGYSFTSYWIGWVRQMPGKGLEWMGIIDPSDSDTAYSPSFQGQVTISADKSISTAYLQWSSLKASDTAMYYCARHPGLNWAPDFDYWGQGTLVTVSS VL: DIQMTQSPSSLSASVGDRVTITCRASQSIRNSLNWYQQKPGKAPKLLIKWASSLQSGVPSRFSGSGSGTDFTLTISSLQPEDFATYYCQQLYDWPLTFGQGTKVEIK	-1

Field: next binder
QUERY: For this binder, is Kd lower than 0.1 nM? IFWM3308 (antibody, V domains shown, VH IFWH591, VL IFWL1004; converted mAb; also called IFWB3043) VH: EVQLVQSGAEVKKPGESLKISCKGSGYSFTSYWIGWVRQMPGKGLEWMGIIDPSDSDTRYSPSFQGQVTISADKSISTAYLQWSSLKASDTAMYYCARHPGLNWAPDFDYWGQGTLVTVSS VL: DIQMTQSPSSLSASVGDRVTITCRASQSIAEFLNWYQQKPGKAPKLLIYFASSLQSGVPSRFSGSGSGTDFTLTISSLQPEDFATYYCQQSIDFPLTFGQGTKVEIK
RESULT: 1
